Test system: SNB-75
Assay: NCI tumour cell line growth inhibition, 48 h
The source made the active and inactive calls. No stated cut-off is given here; in the data, active = GI50 up to about 1.1 µM and inactive = higher.
A correct response names exactly one class from active, inactive

Solved entries:
[
  {
    "MOLECULE": "N#CC(C#N)=C/C=C/c1c(Cl)cccc1Cl",
    "CAT": "inactive"
  },
  {
    "MOLECULE": "O=C(O)/C=C/c1c2ccc(=O)c(O)c-2oc2c(O)c(O)ccc12",
    "CAT": "inactive"
  },
  {
    "MOLECULE": "OC(CCN1CCN(CCOC(c2ccccc2)c2ccccc2)CC1)c1ccc(Br)cc1 (configuration not stated)",
    "CAT": "inactive"
  },
  {
    "MOLECULE": "COc1cccc(Cc2cc(=O)c3ccc(C)nc3[nH]2)c1",
    "CAT": "inactive"
  }
]

Ask: Returns: the outcome recorded for `COCOc1cc(OC)c(Br)cc1C/C(=N/O)C(=O)OC` in this assay.
Reply: inactive

Ask: Returns: the outcome recorded for `O=C1C[C@@H]2[C@@H](C=CC23CCCC3)N1O` in this assay.
Reply: inactive

Ask: Returns: the outcome recorded for `CCOC(=O)C1=C(N)N(c2ccccc2)/C(=C2\SC(=S)N(c3ccc(C)cc3)C2=O)S1` in this assay.
Reply: inactive

Ask: Returns: the outcome recorded for C/C=C/C(C#N)(Cc1ccccc1)OP1(=O)OC(c2ccccc2)C(C)N1C (configuration not stated) in this assay.
Reply: inactive

Ask: Returns: the outcome recorded for `Cc1ccc(I)cc1N=C=S` in this assay.
Reply: inactive

Ask: Returns: the outcome recorded for `CC1=C(C(=O)NNC(=O)Cc2ccccc2)CC(C(=O)NNC(=O)Cc2ccccc2)=C(C)N1` in this assay.
Reply: inactive
